Sourced from patent US8309558B2

system_name: HCV NS5B RdRp genotype 1b (Hepatitis C virus genotype 1b)
Construct: The protein was expressed with an 18 amino acid C-terminal truncation to enhance the solubility; made in house; host or cells: E. coli BL21(DE3), pET21a vector
assay_explanation: Standard HCV NS5B RdRp enzyme assay
Assay type: biochemical
measurement_conditions: second table titled Table 1d (numbers); HCV NS5B RdRp genotype 1b; read-out: IC50
reported_metric: IC50 (nM)

> print(dat)
                                   compound  value.qualifier  recorded.number
1  CNC(=O)c1c(-c2ccc(F)cc2)oc2ccc(-c3cc(C(=O)NC4(c5ncc(C)s5)CC4)ccc3C)cc12 [drawing 708]                <               17
2  CNC(=O)c1c(-c2ccc(F)cc2)oc2ccc(-c3cc(C(=O)NC4(c5ccccn5)CC4)c(OCc4cnccn4)cc3C)cc12 [drawing 711]                =              2.1
3  CNC(=O)c1c(-c2ccc(F)cc2)oc2ccc(-c3cc(C(=O)NC4(c5ncccn5)CC4)cc(F)c3C)c(F)c12 [drawing 712]                =              8.1

###

system_name: HCV NS5B RdRp genotype 1b (Hepatitis C virus genotype 1b)
Construct: The protein was expressed with an 18 amino acid C-terminal truncation to enhance the solubility; made in house; host or cells: E. coli BL21(DE3), pET21a vector
assay_explanation: Standard HCV NS5B RdRp enzyme assay
Format: biochemical
measurement_conditions: Table 1a; HCV NS5B RdRp genotype 1b; read-out: IC50
reported_metric: IC50

> print(dat)
                                item.smiles  reported.metric          result
1  CNC(=O)c1c(-c2ccc(F)cc2)oc2ccc(-c3cccc(C(=O)NCc4ccccc4O)c3)cc12             IC50  250 to 1000 nM
2  CCN(Cc1ccncc1)C(=O)c1ccc(-c2ccc3oc(-c4ccc(F)cc4)c(C(=O)NC)c3c2)cc1             IC50      > 10000 nM
3  CNC(=O)c1c(-c2ccc(F)cc2)oc2ccc(-c3cc(C(=O)NCC(C)C)ccc3OC(C)C)cc12             IC50  250 to 1000 nM
4  CNC(=O)c1c(-c2ccc(F)cc2)oc2ccc(-c3cccc4[nH]ccc34)cc12             IC50      > 10000 nM

###

Overview of reported pIC50 across a group of compounds:
system_name: HCV NS5B RdRp genotype 1b (Hepatitis C virus genotype 1b, UniProt Q9WMX2)
Construct: The protein was expressed with an 18 amino acid C-terminal truncation to enhance the solubility; made in house; host or cells: E. coli BL21(DE3), pET21a vector
Sequence (Q9WMX2 2420-2992): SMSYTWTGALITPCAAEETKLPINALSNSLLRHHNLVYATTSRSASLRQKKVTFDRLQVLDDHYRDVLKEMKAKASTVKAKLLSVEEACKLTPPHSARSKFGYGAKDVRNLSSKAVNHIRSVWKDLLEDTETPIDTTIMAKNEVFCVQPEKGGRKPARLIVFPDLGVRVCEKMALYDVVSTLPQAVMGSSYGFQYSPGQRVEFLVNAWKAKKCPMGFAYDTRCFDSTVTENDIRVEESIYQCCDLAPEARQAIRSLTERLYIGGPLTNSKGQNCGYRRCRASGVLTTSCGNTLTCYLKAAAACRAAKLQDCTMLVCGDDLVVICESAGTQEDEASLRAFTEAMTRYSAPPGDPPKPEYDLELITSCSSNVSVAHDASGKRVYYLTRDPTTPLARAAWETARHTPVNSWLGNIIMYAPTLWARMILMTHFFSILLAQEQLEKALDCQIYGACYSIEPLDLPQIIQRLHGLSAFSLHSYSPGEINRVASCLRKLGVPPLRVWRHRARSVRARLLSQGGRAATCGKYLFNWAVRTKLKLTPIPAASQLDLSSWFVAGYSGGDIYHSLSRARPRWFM
assay_explanation: Standard HCV NS5B RdRp enzyme assay
Format: biochemical
measurement_conditions: Table 1a; HCV NS5B RdRp genotype 1b; read-out: IC50
pIC50: −log10 of the molar value.
reported_metric: pIC50

> print(dat)
                                    compound        result
 1  CNC(=O)c1c(-c2ccc(F)cc2)oc2ccc(-c3ccc(OC)nc3)cc12        < 5.00
 2  CNC(=O)c1cccc(-c2ccc3oc(-c4ccc(F)cc4)c(C(=O)NC)c3c2)c1  5.00 to 6.00
 3  CNC(=O)c1c(-c2ccc(F)cc2)oc2ccc(-c3cccc(C(=O)N[C@@H](C)c4cccc(OC)c4)c3)cc12        > 6.60
 4  CNC(=O)c1c(-c2ccc(F)cc2)oc2ccc(-c3cccc(C(=O)NC(CCO)c4ccccc4)c3)cc12 (centres unmarked)        > 6.60
 5  CNC(=O)c1c(-c2ccc(F)cc2)oc2ccc(-c3cccc(-c4nnc(C(C)C)o4)c3)cc12        > 6.60
 6  CNC(=O)c1c(-c2ccc(F)cc2)oc2ccc(-c3cccc(C(N)=O)c3)cc12  5.00 to 6.00
 7  CCOC(=O)CC(C)NC(=O)c1cccc(-c2ccc3oc(-c4ccc(F)cc4)c(C(=O)NC)c3c2)c1 (centres unmarked)        > 6.60
 8  CNC(=O)c1c(-c2ccc(F)cc2)oc2ccc(-c3cccc(C(=O)NC(C)(C)C(=O)OC)c3)cc12        > 6.60
 9  CNC(=O)c1c(-c2ccc(F)cc2)oc2ccc(-c3cccc(C(=O)N4Cc5ccccc5C4)c3)cc12        < 6.40
10  CNC(=O)c1c(-c2ccc(F)cc2)oc2ccc(-c3ccc(C(=O)N(C)C4CCN(C)C4)cc3)cc12 (centres unmarked)        < 5.00
11  CNC(=O)c1c(-c2ccc(F)cc2)oc2ccc(-c3ccc(F)cc3Cl)cc12        < 5.00
12  CNC(=O)c1c(-c2ccc(F)cc2)oc2ccc(-c3cccc(C(=O)Nc4c(O)ncnc4O)c3)cc12  6.00 to 6.60
13  CCOC(=O)C(NC(=O)c1cccc(-c2ccc3oc(-c4ccc(F)cc4)c(C(=O)NC)c3c2)c1)C(C)C (centres unmarked)  6.00 to 6.60
14  CNC(=O)c1c(-c2ccc(F)cc2)oc2cc([N+](=O)[O-])c(-c3cc(C(=O)NCC(C)C)ccc3OC)cc12  6.00 to 6.60
15  CNC(=O)c1c(-c2ccc(F)cc2)oc2ccc(-c3cccc(C(=O)NC(C)(C)C(=O)Nc4nccs4)c3)cc12        > 6.60
16  CNC(=O)c1c(-c2ccc(F)cc2)oc2ccc(-c3cccc(C(=O)NC(C)(C)CC(C)(C)C)c3)cc12  6.00 to 6.60
17  CNC(=O)c1c(-c2ccc(F)cc2)oc2ccc(-c3cccc(C(=O)N[C@H]4CCC[C@H]4C(N)=O)c3)cc12  6.00 to 6.60
18  CNC(=O)c1c(-c2ccc(F)cc2)oc2ccc(-c3cccc(C(=O)NC4CCCC4)c3)cc12        > 6.60
19  CNC(=O)c1c(-c2ccc(F)cc2)oc2ccc(-c3cccc(C(=O)Nc4cnccn4)c3)cc12        > 6.60
20  CNC(=O)c1c(-c2ccc(F)cc2)oc2ccc(-c3cccc(S(=O)(=O)NC4CC4)c3)cc12        < 5.00
21  CNC(=O)c1c(-c2ccc(F)cc2)oc2ccc(-c3cccc(C(=O)N4CCC4)c3)cc12  6.00 to 6.60
22  CNC(=O)c1c(-c2ccc(F)cc2)oc2ccc(OCCCNC(=O)OC(C)(C)C)cc12  5.00 to 6.00
23  CNC(=O)c1c(-c2ccc(F)cc2)oc2ccc(-c3cccc(C(=O)NCCc4ccccc4)c3)cc12        < 5.00
24  CNC(=O)c1c(-c2ccc(F)cc2)oc2ccc(-c3cccc(C(=O)Nc4cccc(OC)c4)c3)cc12  5.00 to 6.00
25  CNC(=O)c1c(-c2ccc(F)cc2)oc2ccc(-c3cccc(C(=O)N4CCCC4)c3)cc12  6.00 to 6.60
26  CCC(C)(C)NC(=O)c1cccc(-c2ccc3oc(-c4ccc(F)cc4)c(C(=O)NC)c3c2)c1        > 6.60
27  CNC(=O)c1c(-c2ccc(F)cc2)oc2ccc(-c3cccc(C(=O)Nc4ccncc4)c3)cc12        > 6.60
28  CNC(=O)c1c(-c2ccc(F)cc2)oc2ccc(-c3cc(C(=O)O)ccc3Cl)cc12  5.00 to 6.00
29  CNC(=O)c1c(-c2ccc(F)cc2)oc2ccc(-c3sccc3C(=O)O)cc12        < 5.00
30  CNC(=O)c1c(-c2ccc(F)cc2)oc2ccc(-c3cccc(C(=O)N4CCCCC4C)c3)cc12 (centres unmarked) [drawing 208]  6.00 to 6.60
31  CNC(=O)c1c(-c2ccc(F)cc2)oc2ccc(-c3cc(OC)ncc3Cl)cc12        < 5.00
32  CNC(=O)c1c(-c2ccc(F)cc2)oc2ccc(-c3cccc(C(=O)NC(C)(C)Cc4ccc(F)cc4)c3)cc12  6.00 to 6.60
33  CNC(=O)c1c(-c2ccc(F)cc2)oc2ccc(-c3cccc(C(=O)Nc4ccccc4)c3)cc12        > 6.60
34  CNC(=O)c1c(-c2ccc(F)cc2)oc2ccc(-c3cccc(C(=O)Nc4ccc(O)nc4)c3)cc12  5.00 to 6.00
35  CNC(=O)c1c(-c2ccc(F)cc2)oc2ccc(-c3ccc(C(=O)NCCc4ccccc4Cl)cc3)cc12        < 5.00
